B1: H2-Kb / Ed8 (parent complex)
chain 1: AQSVTQPDARVTVSEGASLQLRCKYSYFGTPYLFWYVQYPRQGLQLLLKYYPGDPVVQGVNGFEAEFSKSNSSFHLRKASVHWSDWAVYFCAVSPGSGGKLTLGAGTRLQVNL
chain 2: DSGVVQSPRHIIKEKGGRSVLTCIPISGHSNVVWYQQTLGKELKFLIQHYEKVERDKGFLPSRFSVQQFDDYHSEMNMSALELEDSAMYFCASSPRASNYTFGSGTRLLVI
chain 3: not shown
chain 4: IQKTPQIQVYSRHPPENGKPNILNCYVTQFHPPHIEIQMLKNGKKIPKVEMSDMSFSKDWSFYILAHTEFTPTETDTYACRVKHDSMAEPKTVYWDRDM
chain 5: SIINFEKL

Variants of: B1
Assay: % of reporter cells activated (NFAT-GFP), raw; note: test concentration or dose not given here
Task for the reader: assign each of the following variants its reported ratio to parent.
Answers are plain numbers.

chain 5 L8I	1.15
chain 5 L8E	0.853
chain 5 K7D	0.0673
chain 5 I3Y	0.813
chain 5 L8Q	1.13
chain 5 F5Y	1.34

Batch request: ratio to parent per item, same order as input.
1. chain 5 L8C
2. chain 5 S1D

[1.04, 1.12]

For every record below, what is its ratio to parent?
1. chain 5 F5D
2. chain 5 L8S
3. chain 5 F5Q
4. chain 5 I3T

[1.12, 0.945, 1.04, 1.34]

Each variant below has a recorded value; state its ratio to parent.
1. chain 5 S1Y
2. chain 5 S1W
3. chain 5 I2W
4. chain 5 K7T
5. chain 5 I3V
6. chain 5 S1Q
7. chain 5 K7V
8. chain 5 L8H

1. 1.16
2. 1.05
3. 1.16
4. 0.648
5. 1.26
6. 1.24
7. 0.73
8. 1.22

// query ratio to parent value for entry chain 5 K7Y 0.958
